system: MDA-MB-231 breast; experiment: NCI tumour cell line growth inhibition, 48 h

{"Compound": "C[C@]12CC[C@H]3[C@@H](CCC4=CC(=O)CC[C@@H]43)[C@@H]1CC[C@@H]2OC(=O)N(CCCl)N=O", "GI50": "14.2 µM"}
{"Compound": "CC1=C(C(=O)OCc2ccccc2)C(c2ccc3c(c2)OCO3)n2c(nc3ccccc32)N1 (stereo unspecified)", "GI50": "> 92.6 µM"}
{"Compound": "O=C1C(Cl)=C(N/N=c2/[nH][nH]/c(=N/NC3=C(Cl)C(=O)c4ccccc4C3=O)c3ccccc23)C(=O)c2ccccc21", "GI50": "12 µM"}
{"Compound": "COc1ccc2c(c1)CC[C@@H]1[C@@H]2CC[C@]2(C)C(=O)C3(CCCCC3)C[C@@H]12", "GI50": "> 100 µM"}
{"Compound": "COc1cccc(C2=C(c3cn(C)c4ccccc34)C(=O)NC2=O)c1", "GI50": "17.4 µM"}
{"Compound": "O=S(=O)(c1ccc(NC(=S)NCc2cccnc2)cc1)N1CCCCC1", "GI50": "26.4 µM"}
{"Compound": "CCOC(=O)c1c2c(n(CC(C)C)c1C)-c1nc[nH]c1C(=O)C2=O", "GI50": "6.85 µM"}
{"Compound": "N#Cc1ncc(/N=C/c2ccc(N(CCCl)CCCl)cc2)s1", "GI50": "50.2 µM"}
{"Compound": "COc1cc2cc(C(=O)N3CC(CCl)c4c3cc(NC(=O)C(C)(C)c3ccccc3[N+](=O)[O-])c3ccccc43)[nH]c2c(OC)c1OC (stereo unspecified)", "GI50": "> 600 µM"}
{"Compound": "CCCN(Cc1ccc(F)cc1)c1ccc(CO)c(Cl)c1", "GI50": "13 µM"}
{"Compound": "C=C(C)[C@@H]1CC[C@]2(C(=O)NCCCN)CC[C@]3(C)[C@H](CC[C@@H]4[C@@]5(C)CC[C@H](O)C(C)(C)[C@@H]5CC[C@]43C)[C@@H]12", "GI50": "21.1 µM"}

* * *

test system: SK-MEL-2 melanoma; assay: NCI tumour cell line growth inhibition, 48 h
Reported values of TGI for individual entries
Parameter: TGI

{"Compound": "CCOC(=O)/C(O)=C(/C=N\\C(=S)Nc1ccccc1Cl)C(=O)OCC", "Recorded result": "> 100 µM"}
{"Compound": "Fc1cc(C2=C[C@H](c3ccc(Cl)cc3)NC(=S)N2)c(Cl)cc1Cl", "Recorded result": "96.2 µM"}
{"Compound": "CCCN(Cc1ccc(F)cc1)c1ccc(CO)c(Cl)c1", "Recorded result": "13.3 µM"}
{"Compound": "COc1cc(/C=C/C(=O)c2sc(-n3nc(-c4ccccc4)cc3-c3ccccc3)nc2C)ccc1O", "Recorded result": "> 100 µM"}
{"Compound": "O=C(c1ccc(Cl)cc1Cl)N(C(=O)N1CCC(c2ccccc2)CC1)c1ccccc1", "Recorded result": "> 100 µM"}
{"Compound": "COC(=O)CCC(=O)N1Cc2cc(C)ccc2N(C(=O)CCC(=O)OC)Cc2cc(C)ccc21", "Recorded result": "> 100 µM"}
{"Compound": "CC1=C2CCCC2C/C(=N/Nc2ccc([N+](=O)[O-])cc2[N+](=O)[O-])CC1 (stereo unspecified)", "Recorded result": "> 100 µM"}
{"Compound": "N=C(N)c1nn(C2OC(CO)C(O)C2O)c2nc[nH]c(=O)c12 (stereo unspecified)", "Recorded result": "0.663 µM"}
{"Compound": "COc1cc(Cn2cc3c(c2)-c2oncc2CC3)cc(OC)c1OC", "Recorded result": "79.3 µM"}
{"Compound": "CN(C)CCCNC(=O)c1cc(NC(=O)CCNS(=O)(=O)c2ccc3c(c2)C(=O)c2ccccc2C3=O)cn1C", "Recorded result": "> 100 µM"}
{"Compound": "CCOC(=O)/C(N=Nc1ccc(-n2c(C)nc3ccccc3c2=O)cc1)=C(/C)O", "Recorded result": "> 100 µM"}
{"Compound": "C=CCONC(=O)c1ccc(Cl)cc1", "Recorded result": "> 100 µM"}
{"Compound": "c1csc(-c2cscc2-c2ccsc2)c1", "Recorded result": "> 100 µM"}
{"Compound": "CCOC(=O)CCC(NC(=O)Cc1ccc(Nc2nc3ccccc3nc2-c2ccccc2)cc1)C(=O)OCC (stereo unspecified)", "Recorded result": "72.7 µM"}
{"Compound": "CCOC(=O)c1nc2ccc(C(F)(F)F)cc2nc1NCc1ccc(Cl)c(Cl)c1", "Recorded result": "> 100 µM"}
{"Compound": "NC(=O)OCC(COc1ccc(Cl)cc1)OC(=O)c1ccccc1Cl (stereo unspecified)", "Recorded result": "34.1 µM"}
{"Compound": "CCOC(=O)c1ccc(C(=O)OCC)n1-c1cc2cc(c1)CSCc1cc(cc(-n3c(C(=O)OCC)ccc3C(=O)OCC)c1)CSC2", "Recorded result": "> 10 µM"}
{"Compound": "CC(=O)OC1c2ccccc2CC2(OC(C)=O)c3ccccc3C12 (stereo unspecified)", "Recorded result": "> 100 µM"}
{"Compound": "CCC[CH2][Sn]([CH2]CCC)([O]C(C)=O)[O]C(C)=O", "Recorded result": "1.95 µM"}
{"Compound": "CC(C)=CCCC1(C)C=Cc2c(c(C)cc3c2[nH]c2cc(O)ccc23)O1 (stereo unspecified)", "Recorded result": "> 25 µM"}
{"Compound": "Cc1ccc2[nH]c(C(=O)NN3C(=O)CSC34CCCCC4C)c(-c3ccccc3)c2c1 (stereo unspecified)", "Recorded result": "38.7 µM"}
